# Test system: NCI-H522 lung
# test_description: NCI-60 one-dose screen, 48 h
# cond: 10 µM unless noted
This is part of a sample that, as a whole, favours compounds with a hit. Of some 83,000 tested, about 20% had one in any assay. Calls of active or inactive are those of the source. How the source made its calls: active means growth percent below 10; inactive means the rest.
Outcomes: active, inactive

compound | label_value
CC1[C@H](C)OC(=O)CC(O)CC(O)CC(O)CCC(O)C(O)C[C@]2(O)CC(O)C(C(=O)O)C(CC(OC3O[C@H](C)[C@@H](O)[C@H](N)[C@@H]3O)/C=C/C=C/C=C/C=C/CC/C=C/C=C/[C@H](C)[C@H]1O)O2 (some centres undefined) | inactive
COc1ccc2c(c1)c(-c1nc(-c3c[nH]c4ncccc34)cs1)cn2CCN1CCOCC1 | inactive
CCOP1(=O)CC(C)=C(Cl)C(P(=O)(OCC)OCC)C1 (centres undefined) | inactive
COc1ccc(S(=O)(=O)Nc2c(/C=C\c3cc(OC)c(OC)c(OC)c3)ccc(OC)c2O)cc1OC | active
Clc1ccc2nnnn2n1 | inactive
O=c1[nH]cc(N(CCCl)CCCl)c(=O)[nH]1 | inactive
O=C(CC1(O)C(=O)Nc2ccccc21)c1ccc(C(=O)NCC2CCC3(CC2)OOC2(CCCCC2)OO3)cc1 (centres undefined) | inactive
Cc1ccc(N2COOC3(OOC2)C2CC4CC(C2)CC3C4)cc1 | inactive
COc1cccc(C=NC(Cc2cnc[nH]2)C(=O)O)c1O (centres undefined) | inactive
